Target: T1, recombinant human C1r2s2 tetramer (human, UniProt P09871 16-688; P00736 18-705)
T1 construct: C1s and C1r co-expressed in HEK293 and purified from the supernatant as tetramer; also called hC1r2s2
T1 chain 1: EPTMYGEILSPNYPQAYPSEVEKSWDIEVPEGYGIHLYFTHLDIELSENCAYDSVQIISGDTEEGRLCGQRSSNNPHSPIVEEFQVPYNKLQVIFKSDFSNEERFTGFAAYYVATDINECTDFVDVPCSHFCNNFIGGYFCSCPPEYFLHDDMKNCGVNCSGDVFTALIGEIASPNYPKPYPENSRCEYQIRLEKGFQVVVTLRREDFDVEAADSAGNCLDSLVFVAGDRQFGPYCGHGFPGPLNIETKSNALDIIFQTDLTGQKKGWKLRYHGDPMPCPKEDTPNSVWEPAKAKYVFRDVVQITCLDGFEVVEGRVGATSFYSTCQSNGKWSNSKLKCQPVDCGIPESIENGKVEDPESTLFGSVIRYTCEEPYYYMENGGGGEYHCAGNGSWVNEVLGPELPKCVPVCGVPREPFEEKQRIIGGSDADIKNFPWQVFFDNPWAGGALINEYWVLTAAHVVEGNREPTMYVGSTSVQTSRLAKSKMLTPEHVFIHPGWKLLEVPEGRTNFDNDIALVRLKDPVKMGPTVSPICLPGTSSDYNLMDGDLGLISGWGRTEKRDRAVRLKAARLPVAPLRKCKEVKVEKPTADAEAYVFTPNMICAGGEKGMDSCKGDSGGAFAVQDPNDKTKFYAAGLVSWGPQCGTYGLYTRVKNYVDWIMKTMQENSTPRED
T1 chain 2: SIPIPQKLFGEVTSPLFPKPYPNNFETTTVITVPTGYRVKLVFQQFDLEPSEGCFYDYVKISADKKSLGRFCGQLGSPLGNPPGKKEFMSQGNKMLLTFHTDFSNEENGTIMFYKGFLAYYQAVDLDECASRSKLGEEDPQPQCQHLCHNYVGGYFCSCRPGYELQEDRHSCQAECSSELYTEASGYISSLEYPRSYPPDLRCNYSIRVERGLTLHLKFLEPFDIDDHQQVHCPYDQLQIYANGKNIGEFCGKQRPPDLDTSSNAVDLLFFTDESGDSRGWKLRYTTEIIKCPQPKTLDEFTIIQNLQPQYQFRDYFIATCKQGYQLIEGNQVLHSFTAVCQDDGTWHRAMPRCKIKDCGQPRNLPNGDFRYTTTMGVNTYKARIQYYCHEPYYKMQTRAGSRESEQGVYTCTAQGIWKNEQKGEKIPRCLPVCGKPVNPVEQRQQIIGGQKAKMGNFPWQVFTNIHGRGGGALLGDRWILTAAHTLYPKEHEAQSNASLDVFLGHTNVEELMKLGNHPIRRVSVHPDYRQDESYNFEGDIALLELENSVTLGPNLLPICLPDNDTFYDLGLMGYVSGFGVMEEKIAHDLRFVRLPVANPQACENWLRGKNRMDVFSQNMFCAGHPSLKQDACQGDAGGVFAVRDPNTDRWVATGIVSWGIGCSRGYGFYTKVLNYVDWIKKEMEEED
Assay: SPR (Biacore T200), 37 C; ratio of KD at pH 6.0 to KD at pH 7.4
PARAMETER MEASURED: KD (pH 6.0)/KD (pH 7.4)

- BINDER: "COS0637pHv23-G1A3FcgSil+LowpI (antibody, V domains shown, VH 28, VL 51, CH 45, CL 23) VH: QVQLVESGGGVVQPGRSLRLSCAASGFTFSAYAMNWIRQPPGKGLEWIGLIYGTGHEFYASWAEERVTISVDTSKNQFSLKLSSVTAADTAVYYCARGRSKNYNSDFHIWGQGTLVTVSS VL: DIQMTQSPSSLSASVGDRVTITCQAHEILHDKKNLAWYQQKPGQPPKLLIYSASILESGVPSRFSGSGSGTDFTLTISSLQPEDFATYYCHGEFSHGSADLNHFGQGTKVEIKR"
  RECORDED RESULT: 110
